Source listed as patent US5470830A.

In this section, each of the compounds is paired with its reported pEC50.
# target or test system: segments of rabbit duodenum (Oryctolagus cuniculus, UniProt G1T803)
# assay summary: Rabbit duodenal smooth muscle strip tissue bath assay (contractile response)
# Assay type: cell-based
# test conditions: contractility; negative logarithm of dose giving 50% of maximal response to motilin; compounds tested 10^-11 to 10^-4 M
Where a SMILES comes first, the peptide text is derived from it. [ ]: non-standard residue; d: D form.

• CC[C@H](C)[C@H](NC(=O)[C@H](Cc1ccccc1)NC(=O)[C@@H](NC(=O)[C@@H](N)Cc1ccccc1)C(C)C)C(=O)N[C@@H](Cc1ccccc1)C(=O)N[C@H](C(=O)N[C@@H](Cc1ccc(O)cc1)C(=O)NCC(=O)N[C@@H](CCC(=O)O)C(=O)N[C@@H](CC(C)C)C(=O)N[C@@H](CCC(N)=O)C(=O)N[C@@H](CCCNC(=N)N)C(=O)N[C@@H](CC(C)C)C(=O)N[C@H](CCC(N)=O)C(N)=O)[C@@H](C)O (H-FVFIFTYGELQRL[dQ]-NH2) = < 4.5

Kindly review the next compound as well.
Which pEC50 reading was recorded for the compound CC[C@H](C)[C@H](NC(=O)[C@H](Cc1ccccc1)NC(=O)[C@@H](NC(=O)[C@@H](N)Cc1ccccc1)C(C)C)C(=O)N[C@@H](Cc1ccccc1)C(=O)N[C@H](C(=O)N[C@@H](Cc1ccc(O)cc1)C(=O)N[C@H](C)C(=O)N[C@@H](CCC(=O)O)C(=O)N[C@@H](CC(C)C)C(=O)N[C@@H](CCC(N)=O)C(=O)N[C@@H](CCCNC(=N)N)C(=O)N[C@@H](CC(C)C)C(=O)N[C@@H](CCC(N)=O)C(=O)O)[C@@H](C)O [[Phe^3, D-Ala^8, Leu^13]pMOT(1-14)] (H-FVFIFTY[dA]ELQRLQ-OH) ?
< 4.5

* * *

# target or test system: motilin receptor (rabbit antral smooth muscle membranes) (Oryctolagus cuniculus)
# Construct: from tissue; host or cells: rabbit antral smooth muscle membranes
# assay summary: Motilin receptor binding affinity: displacement of [125I-Tyr7,Nle13]motilin(porcine)
# test conditions: negative logarithm of concentration displacing 50% of [125I-Tyr7,Nle13]motilin(porcine) from rabbit antral smooth muscle membranes; read-out: pIC50 (converted)
Where a SMILES comes first, the peptide text is derived from it. [ ]: non-standard residue; d: D form.
measured property: IC50 (nM)
Response body: numeric value in nM, unit text excluded.

Could you share which IC50 value was measured for CC[C@H](C)[C@H](NC(=O)[C@H](Cc1ccccc1)NC(=O)[C@@H](NC(=O)[C@H](N)Cc1ccccc1)C(C)C)C(=O)N[C@@H](Cc1ccccc1)C(=O)N[C@H](C(=O)N[C@@H](Cc1ccc(O)cc1)C(=O)NCC(=O)N[C@@H](CCC(=O)O)C(=O)N[C@@H](CC(C)C)C(=O)N[C@@H](CCC(N)=O)C(=O)N[C@@H](CCCNC(=N)N)C(=O)N[C@@H](CC(C)C)C(=O)N[C@@H](CCC(N)=O)C(=O)O)[C@@H](C)O [[D-Phe^1, Phe^3, Leu^13]pMOT(1-14)] (H-[dF]VFIFTYGELQRLQ-OH) ?
229

* * *

# target or test system: motilin receptor (rabbit antral smooth muscle membranes) (Oryctolagus cuniculus, UniProt G1T803)
# Construct: from tissue; host or cells: rabbit antral smooth muscle membranes
# Sequence (G1T803 1-400): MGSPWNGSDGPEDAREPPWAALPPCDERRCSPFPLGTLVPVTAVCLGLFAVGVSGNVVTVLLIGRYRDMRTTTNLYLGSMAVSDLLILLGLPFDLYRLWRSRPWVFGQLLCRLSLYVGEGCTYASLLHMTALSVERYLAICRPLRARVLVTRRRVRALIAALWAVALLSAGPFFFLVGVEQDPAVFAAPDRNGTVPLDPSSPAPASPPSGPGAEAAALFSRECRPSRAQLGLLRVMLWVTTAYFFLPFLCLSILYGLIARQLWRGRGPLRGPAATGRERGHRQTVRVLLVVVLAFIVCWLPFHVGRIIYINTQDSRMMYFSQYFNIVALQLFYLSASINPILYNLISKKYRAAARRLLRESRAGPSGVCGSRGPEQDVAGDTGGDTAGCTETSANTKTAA
# assay summary: Motilin receptor binding affinity: displacement of [125I-Tyr7,Nle13]motilin(porcine)
Where no end group is shown, it is not given here.
measured property: pIC50
Entry type: numeric. Quantity: pIC50, the -log10 of concentration in molar units.

• FVIIFTYGELQRLQEKERNKGQ [[Ile^3, Leu^13]pMOT] = 7.82

Now examine the next entry.
Query (sequence): FVFIFTYGELQRLQEKERNKGQ [[Phe^3,Leu^13]pMOT] ; field requested: pIC50
9.11

* * *

Entries and their IC50 values follow.
# target or test system: motilin receptor (rabbit antral smooth muscle membranes) (Oryctolagus cuniculus)
# Construct: from tissue; host or cells: rabbit antral smooth muscle membranes
# assay summary: Motilin receptor binding affinity: displacement of [125I-Tyr7,Nle13]motilin(porcine)
# test conditions: negative logarithm of concentration displacing 50% of [125I-Tyr7,Nle13]motilin(porcine) from rabbit antral smooth muscle membranes; read-out: pIC50 (converted)
Where a SMILES comes first, the peptide text is derived from it. [ ]: non-standard residue; d: D form. Phe(4-I) = N[C@@H](Cc1ccc(I)cc1)C(=O)O; 2Nal = N[C@@H](Cc1ccc2ccccc2c1)C(=O)O; 2Thi = N[C@@H](Cc1cccs1)C(=O)O; Cha = N[C@@H](CC1CCCCC1)C(=O)O
Field: numeric (nM). Do not append units.

- CC[C@H](C)[C@H](NC(=O)[C@H](Cc1ccc(I)cc1)NC(=O)[C@@H](NC(=O)[C@@H](N)Cc1ccccc1)C(C)C)C(=O)N[C@@H](Cc1ccccc1)C(=O)N[C@H](C(=O)N[C@@H](Cc1ccc(O)cc1)C(=O)NCC(=O)N[C@@H](CCC(=O)O)C(=O)N[C@@H](CC(C)C)C(=O)N[C@@H](CCC(N)=O)C(=O)N[C@@H](CCCNC(=N)N)C(=O)N[C@@H](CC(C)C)C(=O)N[C@@H](CCC(N)=O)C(=O)O)[C@@H](C)O [[p-I-Phe^3, Leu^13]pMOT(1-14)] (H-FV[Phe(4-I)]IFTYGELQRLQ-OH): 43.7
- CC[C@H](C)[C@H](NC(=O)[C@H](CC1CCCCC1)NC(=O)[C@@H](NC(=O)[C@@H](N)Cc1ccccc1)C(C)C)C(=O)N[C@@H](Cc1ccccc1)C(=O)N[C@H](C(=O)N[C@@H](Cc1ccc(O)cc1)C(=O)NCC(=O)N[C@@H](CCC(=O)O)C(=O)N[C@@H](CC(C)C)C(=O)N[C@@H](CCC(N)=O)C(=O)N[C@@H](CCCNC(=N)N)C(=O)N[C@@H](CC(C)C)C(=O)N[C@@H](CCC(N)=O)C(=O)O)[C@@H](C)O [[Cha^3, Leu^13]pMOT(1-14)] (H-FV[Cha]IFTYGELQRLQ-OH): 20.9
- CC[C@H](C)[C@H](NC(=O)[C@H](Cc1cccs1)NC(=O)[C@@H](NC(=O)[C@@H](N)Cc1ccccc1)C(C)C)C(=O)N[C@@H](Cc1ccccc1)C(=O)N[C@H](C(=O)N[C@@H](Cc1ccc(O)cc1)C(=O)NCC(=O)N[C@@H](CCC(=O)O)C(=O)N[C@@H](CC(C)C)C(=O)N[C@@H](CCC(N)=O)C(=O)N[C@@H](CCCNC(=N)N)C(=O)N[C@@H](CC(C)C)C(=O)N[C@@H](CCC(N)=O)C(=O)O)[C@@H](C)O [[Thi^3, Leu^13]pMOT(1-14)] (H-FV[2Thi]IFTYGELQRLQ-OH): 25.7

Recorded IC50 for CC[C@H](C)[C@H](NC(=O)[C@H](Cc1ccc2ccccc2c1)NC(=O)[C@@H](NC(=O)[C@@H](N)Cc1ccccc1)C(C)C)C(=O)N[C@@H](Cc1ccccc1)C(=O)N[C@H](C(=O)N[C@@H](Cc1ccc(O)cc1)C(=O)NCC(=O)N[C@@H](CCC(=O)O)C(=O)N[C@@H](CC(C)C)C(=O)N[C@@H](CCC(N)=O)C(=O)N[C@@H](CCCNC(=N)N)C(=O)N[C@@H](CC(C)C)C(=O)N[C@@H](CCC(N)=O)C(=O)O)[C@@H](C)O [[2-Nal^3, Leu^13]pMOT(1-14)] (H-FV[2Nal]IFTYGELQRLQ-OH) , please?
27.5
